targetDesc: T1, recombinant extracellular domain of CD38 (human, UniProt P28907 43-300)
T1 construct: also called CD38 extracellular domain; AtaGenix ATMP00140HU
test: Biacore SPR
pKd: −log10 of the molar value.
This listing pairs binders with measured pKd.
measuredAttribute: pKd

binder="FTL004-hu-9 (antibody, human IgG1, kappa, V domains shown, also called FLT004-hu-9; FTL004-hum-9) VH: QVQLVQSGAEVKKPGASVKVSCKASGYTFTDYNVHWIRQAPGQGLEWIGYFYPRNGATHYNQKFTGRATLTVDTSTSTAYMEISSLRSEDTAVYFCARGETPGTFPYWGQGTLVTVSS VL: EIVLTQSPATLSLSPGERATLSCRASESVDNFGITFMHWYQQKPGQAPRLLIYRASNLESGIPARFSGSGSRTDFTLTISSLEPEDFAVYYCQQSSKDPRTFGQGTKLEIKR" numericreadout=8.52
binder="FTL004-hu-5 (antibody, human IgG1, kappa, V domains shown, also called FLT004-hu-5; FTL004-hum-5) VH: QVQLVQSGSELKKPGASVKVSCKASGYTFTDYNVHWIRQAPGQGLEWIGYFYPRNGATHYNQKFTGRAVLSADTSVSTAYLQISSLKAEDTAVYFCARGETPGTFPYWGQGTLVTVSS VL: DIQLTQSPSSLSASVGDRVTITCRASESVDNFGITFMHWYQQKPGKAPKLLIYRASNLESGVPSRFSGSGSRTDFTLTISSLQPEDFATYYCQQSSKDPRTFGQGTKLEIKR" numericreadout=8.78
binder="FTL004-hu-15 (antibody, human IgG1, kappa, V domains shown, also called FLT004-hu-15; FTL004-hum-15) VH: EVQLVQSGAEVKKPGATVKISCKASGYTFTDYNVHWIQQAPGKGLEWIGYFYPRNGATHYNQKFTGRATLTADTSTDTAYMEISSLRSEDTAVYFCARGETPGTFPYWGQGTLVTVSS VL: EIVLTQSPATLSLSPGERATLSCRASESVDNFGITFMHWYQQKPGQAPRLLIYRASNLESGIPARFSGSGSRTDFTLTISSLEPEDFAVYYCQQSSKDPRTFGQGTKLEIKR" numericreadout=8.44
binder="FTL004-hu-11 (antibody, human IgG1, kappa, V domains shown, also called FLT004-hu-11; FTL004-hum-11) VH: QVQLVQSGAEVKKPGASVKVSCKASGYTFTDYNVHWIRQAPGQGLEWIGYFYPRNGATHYNQKFTGRATLTVDTSTSTAYMEISSLRSEDTAVYFCARGETPGTFPYWGQGTLVTVSS VL: DIQLTQSPSSLSASVGDRVTITCRASESVDNFGITFMHWYQQKPGKAPKLLIYRASNLESGVPSRFSGSGSRTDFTLTISSLQPEDFATYYCQQSSKDPRTFGQGTKLEIKR" numericreadout=8.54
binder="FTL004-hu-3 (antibody, human IgG1, kappa, V domains shown, also called FLT004-hu-3; FTL004-hum-3) VH: QVQLVQSGSELKKPGASVKVSCKASGYTFTDYNVHWIRQAPGQGLEWIGYFYPRNGATHYNQKFTGRAVLSADTSVSTAYLQISSLKAEDTAVYFCARGETPGTFPYWGQGTLVTVSS VL: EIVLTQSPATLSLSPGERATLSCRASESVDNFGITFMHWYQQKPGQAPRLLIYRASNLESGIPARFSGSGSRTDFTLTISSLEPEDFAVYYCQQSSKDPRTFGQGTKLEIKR" numericreadout=8.82
